FYI, the data here is from PubChem BioAssay AID1259389.

experiment: TAR RNA-Tat peptide displacers, HIV-1, primary screen, biochemical, FRET, FAM/TAMRA-labeled Tat (AID 1259389); settings: HIV-1 TAR RNA, Tat peptide displacement FRET; active compounds read high
The whole screen tested about 100,000 compounds, of which about 620 (0.62%) were called active. The sample holds actives, similar compounds and a random draw of the others, so the mix is not that of the screen.
Kind request: treat 0.5 as inclusive, so z-score at 0.5 or higher is 1, anything lower is 0.

Field: example entries. Status: answers known.
COC(=O)C(=O)c1c(-c2ccc(Br)cc2)[nH]c2ccccc12; 1
Cc1nc2ccccc2n1CCNS(=O)(=O)c1ccc2c(c1)oc(=O)n2C; 1
Cc1cc(NCc2cccs2)n2nc(Cc3cccc(F)c3)nc2n1; 1
Cc1nc2c3cccnc3nn2c(C)c1CCC(=O)NC1CCCCC1; 0
CCCSc1ncc(CO)n1Cc1ccccc1; 1

Read the next record carefully.
Query: Entry "Cc1nn(C)c(C)c1CNS(=O)(=O)c1ccc2c(c1)oc(=O)n2C" : is its z-score no less than 0.5?
Response: 0
